measured-on: CYP3A4 (Homo sapiens)
Sequence (P08684 whole entry): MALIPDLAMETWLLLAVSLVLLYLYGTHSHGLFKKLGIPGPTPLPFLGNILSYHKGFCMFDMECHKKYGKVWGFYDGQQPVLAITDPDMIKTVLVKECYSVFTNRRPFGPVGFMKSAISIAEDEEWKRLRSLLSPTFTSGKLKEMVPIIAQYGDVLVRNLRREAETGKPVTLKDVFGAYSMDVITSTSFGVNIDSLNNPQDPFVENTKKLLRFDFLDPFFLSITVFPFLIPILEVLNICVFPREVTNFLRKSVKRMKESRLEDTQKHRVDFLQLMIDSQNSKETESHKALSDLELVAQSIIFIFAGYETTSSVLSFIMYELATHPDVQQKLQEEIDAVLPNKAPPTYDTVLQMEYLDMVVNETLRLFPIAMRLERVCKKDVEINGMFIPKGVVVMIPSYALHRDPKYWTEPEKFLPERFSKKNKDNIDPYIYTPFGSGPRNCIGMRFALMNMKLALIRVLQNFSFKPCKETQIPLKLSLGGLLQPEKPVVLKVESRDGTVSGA
protocol-text: CYP3A4 inhibition and inactivation kinetics, nifedipine oxidation as marker reaction
experimental-setup: human, CYP3A4 enzyme, pH 7.4, probe nifedipine (200 µM), nifedipine oxidation
result-type: kinact (s⁻¹)

A. COc1ccc(-c2cc(=O)c3c(O)cc(O)cc3o2)cc1 [acacetin]
B. O=C1CC(c2ccccc2)Oc2cc(O)cc(O)c21 (centres unmarked) [pinocembrin, 5,7-dihydroxy-flavanone]
Task: Exercise: compare A and B ; which one has the greater kinact? Answer with the label corresponding to your selection.
Result: A
(A: 0.00167 s⁻¹, B: 0.000667 s⁻¹)

====

measured-on: CYP3A4 (Homo sapiens)
protocol-text: in vitro
experimental-setup: human, pH 7.4, kinact/Ki (inactivation efficiency)
result-type: kinact/KI (M⁻¹ s⁻¹)
Reply numerically in M⁻¹ s⁻¹, unit not repeated.

Task: For the molecule O=c1cc(-c2ccccc2)oc2cc(O)cc(O)c12 [chrysin, 5,7-dihydroxy-flavone] , what kinact/KI is on record?
Result: 500
